- Test system: S. pneumoniae D39V;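 also: first quartile when negative (synergy) and third quartile when positive (antagonism)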
- method: Bliss interaction score (quartile over a dose matrix) (fitness difference); higher = more antagonism (negative = synergy)
Form field: Bliss interaction score (one value per entry).
endpoint-label: Bliss interaction score

molecule: CCC[C@@H]1C[C@@H](C(=O)N[C@@H]([C@H]2O[C@H](SC)[C@H](O)[C@@H](O)[C@H]2O)[C@@H](C)O)N(C)C1 [Lincomycin] + Cc1cc(NS(=O)(=O)c2ccc(N)cc2)no1 [Sulfamethoxazol]
system: S. pneumoniae D39V;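 also: first quartile when negative (synergy) and third quartile when positive (antagonism)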
endpoint-label: Bliss interaction score
reading: -0.128
//
molecule: CC[C@H]1OC(=O)[C@H](C)[C@@H](O[C@H]2C[C@@](C)(OC)[C@@H](O)[C@H](C)O2)[C@H](C)[C@@H](O[C@@H]2O[C@H](C)C[C@H](N(C)C)[C@H]2O)[C@](C)(OC)C[C@@H](C)C(=O)[C@H](C)[C@@H](O)[C@]1(C)O [Clarithromycin] + Oc1cc(Cl)ccc1Oc1ccc(Cl)cc1Cl [Triclosan]
system: S. pneumoniae D39V;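 also: first quartile when negative (synergy) and third quartile when positive (antagonism)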
endpoint-label: Bliss interaction score
reading: 0.0396

// provenance: the supplement of paper PMC10627819
